This document collects Ki values reported for Factor VIIa (Homo sapiens, UniProt P08709).
Numbers only here, please. The scale is µM.

Field: Ki (Factor VIIa (Homo sapiens, UniProt P08709)). Entry: "N=C(N)c1ccc(C=C2CCCCC(=Cc3ccc(C(=N)N)cc3)C2=O)cc1"
140

Field: Ki (Factor VIIa (Homo sapiens, UniProt P08709)). Entry: CC(=N)N1CC[C@H](Oc2ccc([C@H](Cc3ccc4ccc(C(=N)N)cc4c3)C(=O)O)cc2)C1 [DX-9065a]
92

Field: Ki (Factor VIIa (Homo sapiens, UniProt P08709)). Entry: COC(=O)[C@H](Cc1cccc(C(=N)N)c1)[C@@H](C)NC(=O)c1ccc(-c2cc[n+]([O-])cc2)cc1 (mixture of isomers)
19

Field: Ki (Factor VIIa (Homo sapiens, UniProt P08709)). Entry: "N=C(N)NCCC[C@@H](NS(=O)(=O)Cc1ccccc1)C(=O)NCC(=O)NCc1ccc(C(=N)N)cc1"
9.6
